# target.under.test: 3-dehydroquinate synthase (Escherichia coli (strain K12))
# Sequence (P07639 whole entry): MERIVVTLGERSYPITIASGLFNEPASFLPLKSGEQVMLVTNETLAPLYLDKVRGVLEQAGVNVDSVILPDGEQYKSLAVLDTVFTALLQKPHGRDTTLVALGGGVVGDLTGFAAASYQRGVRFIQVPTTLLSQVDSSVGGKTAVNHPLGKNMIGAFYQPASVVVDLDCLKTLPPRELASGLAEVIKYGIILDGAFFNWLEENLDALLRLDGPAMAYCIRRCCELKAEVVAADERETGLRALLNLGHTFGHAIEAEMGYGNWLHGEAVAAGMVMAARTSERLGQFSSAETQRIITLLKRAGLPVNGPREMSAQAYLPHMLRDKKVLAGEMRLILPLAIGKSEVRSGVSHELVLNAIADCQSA
# protocol: Enzyme Inhibition
For each of the molecules below, state its Ki.
Give just the number in µM; leave the unit off.

Incoming: Provide only the value of recorded Ki for O=C(O)C1CC(O)C(O)C(CP(=O)(O)O)O1 (configuration not stated)
Outgoing: 35

Incoming: For O=C(O)C1(O)CC(O)C(O)C(CP(=O)(O)O)O1 (configuration not stated) , write its Ki.
Outgoing: 0.12
